test system: cellular immunity (delayed type hypersensitivity to sheep erythrocytes); test: Delayed type hypersensitivity (DTH) to sheep erythrocytes, hind paw edema (cellular immunity); assay type: in vivo, CDF1 strain female mice; conditions: 5 μg/kg intraperitoneally, hind paw, 24 hours after challenge
Could you please report measured Thickness of Edema (Mean Value ± Standard Error) for the items listed next?
Please reply with the bare figure in × 0.1 mm and do not write the unit itself.

[ask] Supply measured Thickness of Edema (Mean Value ± Standard Error) of NC(=O)C(O)C1NC(=O)C(N)Cc2ccc(O)c(c2)Oc2ccc(cc2)CC(C(=O)O)NC1=O (stereo not drawn) in your reply.
[reply] 11.7

[ask] Tell me measured Thickness of Edema (Mean Value ± Standard Error) for COc1ccc2cc1Oc1ccc(cc1)CC(C(=O)O)NC(=O)C(C(O)C(=O)O)NC(=O)C(N)C2 (stereo not drawn) please.
[reply] 8.2

[ask] Let me know recorded Thickness of Edema (Mean Value ± Standard Error) for COc1ccc2cc1Oc1ccc(cc1)CC(C(=O)O)NC(=O)C(C(O)C(N)=O)NC(=O)C(N)C2 (stereo not drawn) , thanks.
[reply] 9.5

[ask] Assign Thickness of Edema (Mean Value ± Standard Error) to the following record: COc1ccc2cc1Oc1ccc(cc1)CC(C(N)=O)NC(=O)C(C(O)C(N)=O)NC(=O)C(N)C2 (stereo not drawn)
[reply] 8.8

[ask] Report Thickness of Edema (Mean Value ± Standard Error), nothing else, for this compound: COc1ccc2cc1Oc1ccc(cc1)CC(CO)NC(=O)C(C(O)CO)NC(=O)C(N)C2 (stereo not drawn)
[reply] 7.8

[ask] Given NC1Cc2ccc(O)c(c2)Oc2ccc(cc2)CC(C(=O)O)NC(=O)C(C(O)C(=O)O)NC1=O (stereo not drawn) , respond with its Thickness of Edema (Mean Value ± Standard Error).
[reply] 9.3
